Target: human serum albumin (human), P02768
Test: SPR (Biacore2000), HSA immobilised (450 RU), analyte 4-400 nM
experimental readout: Kd (nM)
Kindly provide the numeric value in nM only, without the unit symbol.

Requested read-out: Kd. Entry: LAEAKVLANRELDKYGVSDYYKNLINNAKTVEGVKALIDEILAALP (modifications not checked)
1.2
